Provide the recorded MIC for the entries that follow.
Report the value in µg/mL with no unit label.

Trichophyton rubrum assay, molecule CCCCCCCCCCCCN1CCC[C@H]1C(=O)N[C@H](CC(=O)OC)C(=O)OC , recorded MIC = 8

Trichophyton rubrum assay, molecule CCCCCCCCCCN1CCC[C@H]1C(=O)N[C@H](CC(=O)OC)C(=O)OC , recorded MIC = 8

Trichophyton rubrum assay, molecule CCCCCCCCCCCCN1CCC[C@H]1C(=O)N[C@H](CC(=O)O)C(=O)O , recorded MIC = 128

Trichophyton rubrum assay, molecule CCCCCCCCCCCN1CCC[C@H]1C(=O)N[C@H](CC(=O)OC)C(=O)OC , recorded MIC = 16

Trichophyton rubrum assay, molecule O=P(O)(O)C(O)(Cn1ccnc1)P(=O)(O)O [ZOL, zoledronate] , recorded MIC = 128

Trichophyton rubrum assay, molecule OC(Cn1cncn1)(Cn1cncn1)c1ccc(F)cc1F , recorded MIC = 64

Just for reference, paper PMC12892976 is where these values come from.
